Measured z-score, listed per entry.
Experiment: HepG2 liver cancer cell viability effects, profiling panel, resazurin fluorescence, 24 h, PK04 Diversity Set (AID 1172); also: test concentration not given here
Details: higher = more signal
Simply state the number, no unit and no words.

STRUCTURE	z-score
Cc1ccc(S(=O)(=O)N2[C@@H](c3ccccc3)C(C(=O)O)=CC[C@H]2c2ccccc2)cc1	-1.18

Which z-score value is on record for COC(=O)c1c(CC[C@@H](CO)NC(=O)N[C@H](Cn2cc(-c3cncn3C)nn2)C(C)C)oc(C(C)=O)c1C(=O)OC ?
-0.623

Which z-score value is on record for O=C1c2ccccc2[C@](Cc2ccccc2I)(C(=O)NCc2ccccc2)[C@H](c2ccc(CO)cc2)N1Cc1ccccc1C(F)(F)F ?
0.716

Which z-score value is on record for C/C(=N\O)C(=O)NCCCCCNC(=O)OCc1ccccc1 ?
1.09

Which z-score value is on record for O=C(CS)NCCCCCCNC(=O)[C@@H]1C[C@@H]2C(=O)N[C@@H](Cc3ccccc3)C(=O)N2[C@@H]1c1ccc(O)cc1 ?
-0.306

Which z-score value is on record for CCCN1C(=O)[C@@]2(CCS(=O)(=O)c3ccccc3)N=C(c3ccc(OCCCO)cc3)O[C@H]2c2ccccc21 ?
-0.561

Which z-score value is on record for O=C(NCc1ccccc1)[C@@]1(CCS(=O)(=O)c2ccccc2)COC(c2ccc(OCCCO)cc2)=N1 ?
0.929

Which z-score value is on record for CCCNC(=O)[C@@H]1c2ccccc2C(=O)N(Cc2cc(F)cc(C(F)(F)F)c2)[C@H]1c1ccc(CO)cc1 ?
0.527

====

Test: small-molecule binders of probe aLefty1, primary screen, biochemical, small-molecule microarray, 635/667 nm fluorescence (AID 1153);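 also: score merges spot fluorescence with signal-to-noise ratio from the scanned slide images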
Conditions: higher = more signal
MEASUREMENT KIND: composite z-score
Simply state the number, no unit and no words.

Which composite z-score value is on record for C[N+](C)(C)CCCCNC(=O)[C@@H]1C[C@@H]2C(=O)N3CCC[C@H]3C(=O)N2[C@@H]1c1cccc(OCCO)c1 ?
0.14

Which composite z-score value is on record for Cc1ccc(N2C(=O)c3ccccc3[C@@H](C(=O)NCc3ccccc3)[C@@H]2c2ccc(CO)cc2)nc1 ?
0.26

Which composite z-score value is on record for CC/C=C/C(=O)N(C[C@@H]1CCCO1)[C@@H]1CC(C(=O)NCCO)=C[C@H](Oc2c(I)cc(CO)cc2OC)[C@H]1O ?
0.135

====

Assay: PSAC antagonists in infected red cells, primary screen, cell-based, P. falciparum Indochina, OD700, 1 h (AID 1154)
Conditions: P. falciparum Indochina infected RBC osmotic lysis, called active from +8 up or from −8 down
Calls of active or inactive are those of the source.
Pick from active, inactive when you respond.

Please review the entries below; each comes with its answer.
MOLECULE	LABEL CLASS
CC(C)NC(=O)[C@@]1(Cc2ccccc2I)c2ccccc2C(=O)N(C2CCCCC2)[C@H]1c1ccc(CO)cc1	inactive
CCCNC(=O)[C@@H]1c2ccccc2C(=O)N(C2CCCCC2)[C@H]1c1ccc(CO)cc1	active
C[C@]1(C(=O)NCCN2CCOCC2)c2ccccc2C(=O)N(Cc2ccccc2)[C@H]1c1ccc(CO)cc1	inactive
COC(=O)c1ccc(C#CC(NP(=O)(c2ccccc2)c2ccccc2)c2ccccc2)cc1 (stereo not given)	active

Tell me the recorded outcome of this test for C=CCc1cccc([C@H]2N[C@H](C(=O)O)CC[C@@H]2C)c1 .
inactive

====

Measured z-score, listed per entry.
Assay: modulators of S6 phosphorylation in cells, primary screen, cell-based, A549, cytoblot, luminescence, serum-stimulated (AID 1158);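 also: serum-stimulated A549 lung adenocarcinoma cells; signal is phosphorylated S6 detected by cytoblot immunostaining with HRP secondary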
Details: A549 phospho-S6 cytoblot, 5 h, higher = more signal
Simply state the number, no unit and no words.

Reference set, count: 3
COMPOUND	MEASURED VALUE
COc1ccc([C@H]2C[C@H]3C(Br)=C[C@]2(OC)C(=O)[C@]32CO2)cc1	-0.242
C#CCCCON=C1C[C@@H](O)[C@@H](O)[C@@H]2[C@@H]3C(=O)N(Cc4ccc5c(c4)OCO5)C(=O)[C@@H]3CC[C@H]12	-0.852
COc1ccc([Si](C)(C)[C@H]2[C@H](CCO)O[C@@]3(C(=O)N(Cc4ccccc4)c4ccc(N5C(=O)c6cccc7cccc5c67)cc43)[C@@H]2C)cc1	0.314

Which z-score value is on record for CSCC[C@@H]1NC(=O)CC=C[C@@H](C)COC(=O)[C@H](CCSC)NC(=O)CC=C[C@@H](C)COC1=O ?
0.214

Which z-score value is on record for CN(C)CCCC[C@@H]1NC(=O)[C@@H]2C[C@H](C(=O)NCCCCCNC(=O)CS)[C@H](c3ccc(O)cc3)N2C1=O ?
0.209

Which z-score value is on record for O=C1C2C=CC(C(O)C#Cc3ccccc3)N(Nc3ccccc3)C2C(=O)N1c1ccccc1 (stereo not given) ?
-0.964

Which z-score value is on record for C=CC[C@]1(C(=O)O)N=C(c2ccc(OCCCO)cc2)O[C@H]1c1ccccc1N=[N+]=[N-] ?
0.883

Which z-score value is on record for COC(=O)C[C@H]1O[C@]2(C(=O)N(C)c3ccccc32)[C@@H](C)[C@@H]1[Si](C)(C)c1ccc(OC)cc1 ?
1.11

Which z-score value is on record for C[C@H]1COC(=O)[C@@H]2CCCN2C(=O)[C@@H](C)COC(=O)[C@@H]2CCCN2C1=O ?
0.33

Which z-score value is on record for CO[C@H]1COC(=O)[C@H](C)COC(=O)[C@H](Cc2ccccc2)NC(=O)CC=C[C@H]1C ?
0.376

====

Measured composite z-score, listed per entry.
Target: Epidermal growth factor receptor (Homo sapiens)
Assay: EGFR binders on small-molecule microarrays, primary screen, biochemical, small-molecule microarray, 635 nm fluorescence (AID 1104);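 also: score merges 667 nm emission intensity with spot signal to noise over triplicate slides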
Details: EGFR binding, higher = more signal
Simply state the number, no unit and no words.

STRUCTURE	MEASURED ON	MEASURED VALUE
COC(=O)Cn1c(C(=O)N2CCCC2)cc2c1C[C@H]1CN(C(=O)c3ccccc3)[C@@](Cc3ccc(OC)cc3)(C(=O)OC)[C@@H]21	Epidermal growth factor receptor (Homo sapiens)	0.559

Query for Epidermal growth factor receptor (Homo sapiens): what composite z-score does the record show for CCCCCCc1nc(C2CC2)c(C)c2c1[Si](C(C)C)(C(C)C)OC2 ?
0.138

Query for Epidermal growth factor receptor (Homo sapiens): what composite z-score does the record show for CC(C)(C)OC(=O)CC[C@]1(C(=O)NCCN2CCOCC2)N=C(c2ccc(OCCCO)cc2)O[C@H]1c1ccccc1CN=[N+]=[N-] ?
-0.243

Query for Epidermal growth factor receptor (Homo sapiens): what composite z-score does the record show for CC(=O)NCCCC[C@@H]1NC(=O)[C@H]2C[C@@H](C(=O)NCCCCCCN(C)C)[C@@H](c3cccc(OCCO)c3)N2C1=O ?
1.64

====

Measured composite z-score, listed per entry.
Target: Torsin-1A-interacting protein 2 (Homo sapiens) (UniProt Q8NFQ8)
Sequence (Q8NFQ8 whole entry, looked up): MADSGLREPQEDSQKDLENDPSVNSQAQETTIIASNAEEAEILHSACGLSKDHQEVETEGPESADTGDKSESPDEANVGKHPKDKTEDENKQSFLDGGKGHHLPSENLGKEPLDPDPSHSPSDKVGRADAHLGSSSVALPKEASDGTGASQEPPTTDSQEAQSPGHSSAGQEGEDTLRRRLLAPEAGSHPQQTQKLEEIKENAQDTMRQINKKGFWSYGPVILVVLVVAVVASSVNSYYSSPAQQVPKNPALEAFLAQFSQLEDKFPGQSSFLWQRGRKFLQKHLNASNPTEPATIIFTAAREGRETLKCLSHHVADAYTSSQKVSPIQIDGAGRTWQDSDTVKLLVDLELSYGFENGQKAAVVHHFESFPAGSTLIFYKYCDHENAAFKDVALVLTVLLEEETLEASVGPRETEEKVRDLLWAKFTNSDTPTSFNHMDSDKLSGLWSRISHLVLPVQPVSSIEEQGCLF
Assay: LULL1 binders on small-molecule microarray, primary screen, cell lysate, human LULL1 lysate, 635/667 nm fluorescence (AID 1092);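 also: probe is lysate of COS7 cells overexpressing human LULL1; score merges per-feature 667 nm fluorescence with signal-to-noise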
Conditions: hLULL1 lysate binding, 635 nm fluorescence, higher = more signal
Simply state the number, no unit and no words.

Reference set, count: 3
STRUCTURE	MEASURED VALUE
O=C1c2ccccc2[C@](Cc2ccccc2I)(C(=O)NCc2ccccc2)[C@H](c2ccc(CO)cc2)N1Cc1ccccc1C(F)(F)F	2.44
C[C@]1(C(=O)NCCN2CCOCC2)c2ccccc2C(=O)N(Cc2ccccc2)[C@H]1c1ccc(CO)cc1	2.99
C=C(COC)/C(=C/C[C@@H](OC(C)=O)c1cccc(OCCO)c1)c1cc(C(=O)OC)ccc1OC	0.228

Which composite z-score value is on record for COCCOC(=O)N1C(=O)[C@@]2(c3cc(C#CCNC(N)=O)ccc31)[C@H](C(=O)N1CCCCCCC1)[C@H]1C(=O)O[C@H](c3ccccc3)[C@H](c3ccccc3)N1[C@@H]2c1ccccc1OCCO ?
2.05

Which composite z-score value is on record for C#C[C@H](O[Si](C#Cc1ccccc1)(C(C)C)C(C)C)c1ccccc1 ?
0.504

Which composite z-score value is on record for C=C[C@H](OC)[C@@H](OC(=O)Nc1ccc(SC)cc1)c1ccc(O)c(F)c1 ?
2.96

Which composite z-score value is on record for [N-]=[N+]=Nc1ccccc1C[C@@]1(C(=O)N2CCOCC2)N=C(c2ccc(OCCCO)cc2)O[C@@H]1c1ccccc1N=[N+]=[N-] ?
2.32

====

Target: Follistatin-related protein 3 (Homo sapiens) (UniProt O95633)
Sequence (O95633 whole entry, looked up): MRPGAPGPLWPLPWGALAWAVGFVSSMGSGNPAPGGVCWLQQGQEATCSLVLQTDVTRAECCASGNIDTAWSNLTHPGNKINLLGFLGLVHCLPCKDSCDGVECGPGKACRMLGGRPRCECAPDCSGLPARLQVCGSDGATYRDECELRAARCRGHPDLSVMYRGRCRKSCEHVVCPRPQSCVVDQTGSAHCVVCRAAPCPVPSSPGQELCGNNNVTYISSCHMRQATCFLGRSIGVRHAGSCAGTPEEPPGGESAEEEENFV
Assay: FSTL3 binders on small-molecule microarrays, primary screen, biochemical, small-molecule microarray, 635 nm fluorescence (AID 1105);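 also: score merges emission near 667 nm and signal to noise per printed spot across three slides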
Settings: FSTL3 binding, higher = more signal
Note to self: values exactly at 0.6 are 1 (yes). So composite z-score at or above 0.6 is 1 (yes), below is 0 (no).

COMPOUND	MEASURED ON	LABEL CLASS
CCOC(=O)C[C@H]1[C@H](OC(=O)c2cc3ccccc3oc2=O)[C@@H](NC(=O)C2CCCCC2)c2cc(OCCCO)ccc2N1C(=O)c1ccc2ccccc2n1	Follistatin-related protein 3 (Homo sapiens) (UniProt O95633)	1 (yes)
COc1cc([C@@H]2N[C@H](C(=O)O)Cc3c2[nH]c2ccccc32)cc(OC)c1OC	Follistatin-related protein 3 (Homo sapiens) (UniProt O95633)	0 (no)
COc1ccc([Si](C)(C)[C@@H]2[C@@H](CC(=O)N(CCO)Cc3ccccc3)O[C@]3(C(=O)N(Cc4cccc(N5CCC5=O)c4)c4ccccc43)[C@H]2C)cc1	Follistatin-related protein 3 (Homo sapiens) (UniProt O95633)	1 (yes)

Item O=C1OCCC=C[C@H]2OC34C=CCN(Cc5ccccc5)C(=O)[C@H]3N(CCO)C(=O)[C@@H]4C12 (stereo not given in full) with composite z-score of 0.6 or above?
0 (no)

Item O=C(NCC(O)CO)[C@]1(Cc2ccccc2)N=C(c2ccc(OCCCO)cc2)O[C@@H]1c1ccccc1 (stereo not given in full) with composite z-score of 0.6 or above?
0 (no)

Item C#CCCCON=C1C[C@@H](O)[C@@H](O)[C@@H]2[C@@H]3C(=O)N(Cc4ccc5c(c4)OCO5)C(=O)[C@@H]3CC[C@H]12 with composite z-score of 0.6 or above?
0 (no)

Item Cc1ccc(S[C@]2(C(=O)NC(C)C)CC(=O)N(C3Cc4ccccc4C3)[C@@H]2c2ccc(CO)cc2)cc1 with composite z-score of 0.6 or above?
0 (no)

Item CCCCCCc1nc(C2CC2)c(C)c2c1[Si](C(C)C)(C(C)C)OC2 with composite z-score of 0.6 or above?
0 (no)

Item CO[C@H]1O[C@H](CO)[C@@H](OC(=O)Nc2ccccc2)[C@H](OC(=O)Nc2ccc3c(c2)OCO3)[C@@H]1OC(=O)Nc1ccc2c(c1)OCO2 with composite z-score of 0.6 or above?
0 (no)

Item CC(C)C[C@@H]1NC(=O)[C@H]2C[C@@H](C(=O)NCCCCCC[N+](C)(C)C)[C@@H](c3ccc(O)cc3)N2C1=O with composite z-score of 0.6 or above?
1 (yes)

Item COCC(=C=CC[C@H](O)c1ccc(OCCO)cc1)C[C@H](O)c1ccccn1 with composite z-score of 0.6 or above?
0 (no)

Item Cc1ccc(S[C@]2(C(=O)O)CC(=O)N(Cc3cc(C(F)(F)F)cc(C(F)(F)F)c3)[C@@H]2c2ccc(CO)cc2I)cc1 with composite z-score of 0.6 or above?
0 (no)

Item COC(=O)Cn1c(C(=O)N2CCCC2)cc2c1C[C@H]1CN(C(=O)c3ccccc3)[C@@](Cc3ccccc3)(C(=O)OC)[C@@H]21 with composite z-score of 0.6 or above?
0 (no)

Item C[C@H]1NC(=O)[C@@H](C)NC(=O)[C@@]23C(=O)N[C@@H](Cc4ccccc4)C2[C@H](C)[C@@]2(C)O[C@H]2C3/C=C/C/C=C\CNC1=O (stereo not given in full) with composite z-score of 0.6 or above?
0 (no)

Item CO[C@H]1COC(=O)[C@H](C)COC(=O)[C@H](Cc2ccccc2)NC(=O)CC=C[C@H]1C with composite z-score of 0.6 or above?
1 (yes)
